# System: T24 (human bladder cancer cells)
# Method description: Cell viability assay (resazurin), cytotoxic activity against solid tumours
# Type: cell-based
# Applied conditions: 72 h treatment, resazurin assay, mean ± SEM; read-out: IC50 T24 (Bladder cancer)
# Protocol: Cells were grown in Dulbecco's Modified Eagle's Medium (DMEM) supplemented with 100 U/mL penicillin, 100 µg/mL streptomycin and 10% fetal bovine serum. HL60 cell line (acute myeloid leukaemia, AML) was obtained from ATCC. It was cultured in IMDM medium supplemented with 100 U/mL penicillin, 100 µg/mL streptomycin and 10% fetal bovine serum. […] Cell viability was calculated as a percentage compared to non-treated cells. The results were expressed as the means ± standard error of the mean (SEM). […]
Measured parameter: pIC50
Value format note: pIC50 is -log10 of concentration (mol/L); just state the number.

Exam item: Query: pIC50; subject: N.N.[Cl][Pt][Cl] [Cisplatin, reference compound]
Marked response: 5.80

====

# Tested on: HL60 (Acute myeloid leukaemia)
# Method description: Antileukemic activity, cell viability (CCK-8 Cell Counting Kit)
# Format: cell-based
# Applied conditions: Homo sapiens, HL-60; 18 h incubation, compounds 0 - 100 µM; read-out: IC50 Cancer cells HL60 (Acute myeloid leukaemia)
pIC50: −log10 of the molar value.
Measured parameter: pIC50

Study these solved cases before continuing.
[
  {
    "Compound": "CCS[C@@H]1O[C@H](COC(C)=O)[C@@H](OC(C)=O)[C@H](N=C=S)[C@H]1OC(C)=O",
    "Endpoint result": "~4.89"
  },
  {
    "Compound": "CC(=O)OC[C@H]1O[C@@H](S(C)(=O)=O)[C@H](OC(C)=O)[C@@H](N=C=S)[C@@H]1OC(C)=O",
    "Endpoint result": "~4.61"
  }
]

Exam item: Which measured pIC50 value corresponds to CC[S@+]([O-])[C@@H]1O[C@H](COC(C)=O)[C@@H](OC(C)=O)[C@H](N=C=S)[C@H]1OC(C)=O [(SS)-17β] ?
Marked response: ~4.60

Exam item: Entry CC(=O)OC[C@H]1O[C@@H]([S@@+]([O-])c2ccccc2)[C@H](OC(C)=O)[C@@H](N=C=S)[C@@H]1OC(C)=O [(SS)-18β] : reported pIC50 = ?
Marked response: ~5.18
